# experimental system: HsCLK1 (Homo sapiens, UniProt P49759)
# Construct: made in house; host or cells: Sf9 insect cells
# Sequence (P49759 whole entry): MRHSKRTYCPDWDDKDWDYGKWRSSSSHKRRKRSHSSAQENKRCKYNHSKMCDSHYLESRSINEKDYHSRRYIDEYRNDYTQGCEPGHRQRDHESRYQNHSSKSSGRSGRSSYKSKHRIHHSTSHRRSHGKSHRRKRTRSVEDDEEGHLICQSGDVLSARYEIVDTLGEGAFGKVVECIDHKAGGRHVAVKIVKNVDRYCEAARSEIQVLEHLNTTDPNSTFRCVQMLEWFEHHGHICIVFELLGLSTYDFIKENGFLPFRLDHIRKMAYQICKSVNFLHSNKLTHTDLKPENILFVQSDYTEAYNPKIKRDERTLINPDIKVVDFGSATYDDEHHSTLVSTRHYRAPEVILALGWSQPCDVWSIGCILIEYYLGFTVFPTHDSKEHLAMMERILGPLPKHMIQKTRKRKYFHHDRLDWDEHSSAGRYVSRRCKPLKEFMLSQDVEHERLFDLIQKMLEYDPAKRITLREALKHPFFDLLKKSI
# method notes: ADP-Glo in vitro kinase inhibition assay, CLK1
# Format: biochemical
# measurement parameters: 10 μM compound, 10 μM ATP; read-out: CLK1 % residual activity
observed property: remaining activity at 10 µM (%)

Consider the following illustrative entries.
Report remaining activity at 10 µM for CC(C)(C)OC(=O)/C=C/c1c[nH]c2cc3cnccc3cc12 please.
48

Report remaining activity at 10 µM for CC(C)(C)OC(=O)CCc1c[nH]c2cc3cnccc3cc12 please.
81

I. COC(=O)CCc1c[nH]c2cc3cnccc3cc12
II. Clc1cc(-c2c[nH]c3cc4cnccc4cc23)ccn1
// select label with min value of measured remaining activity at 10 µM from [ I , II ] Please identify the chosen entry by its label.
II
